# tgt: human recombinant Yes [a.a. 2–543 (end)] (Homo sapiens)
# Construct: human recombinant Yes [a.a; 2–543 (end)]; purchased BPS Bioscience 40488
# experiment.description: ADP-Glo kinase assay, inhibition rates of Yes phosphorylation activity (first and second screening)
# Type: biochemical
# condition.details: first screening; mean of n = 4 wells; 10 μmol L−1 compound
measure: First screening IR (inhibition rate) (%)

Answered examples (4):
>>> value_observed("CC1CCc2c(sc3nc(-c4cccnc4)nc(N4CCCCCCC4)c23)C1 (stereo not shown)")
4
>>> value_observed("Cc1[nH]c(=O)c(C#N)c(C)c1CCc1nc(-c2cc(Br)cs2)no1")
10
>>> value_observed("CN1CCC(N(C)S(=O)(=O)c2ccc(NC(=O)Cc3ccc(F)cc3)cc2)CC1")
13
>>> value_observed("CCOc1ccc(NC(=O)c2ccccc2NC(=O)CN2CCOCC2)cc1")
14

[a] O=C(Nc1nc2ccccc2[nH]1)c1cc(-c2ccccc2)n[nH]1
[b] O=C(/C=C/c1ccc(Br)o1)Nc1ccc(S(=O)(=O)C2CCCC2)cc1
[c] Cc1nc(-c2ccc(C(=O)OCCCn3cccn3)cc2)n[nH]1
[d] COc1cc(C)c(Sc2cnc(NC(=O)c3ccc(CCl)cc3)s2)cc1C(=O)N1CCN(C(C)=O)CC1
[e] Cc1cc(/C(O)=C2\C(=O)C(=O)N(CCN3CCOCC3)C2c2ccc(F)cc2)ccc1OCC(C)C (stereo not shown)
# rank by First screening IR (inhibition rate), ascending (min first) Lab note: final answer is the ordered label list.
e, b, a, c, d
(e: -1%, b: 0%, a: 3%, c: 10%, d: 64%)

----------
# tgt: human recombinant Yes [a.a. 2–543 (end)] (Homo sapiens, UniProt P07947)
# Construct: human recombinant Yes [a.a; 2–543 (end)]; purchased BPS Bioscience 40488
# Sequence (P07947 2-543): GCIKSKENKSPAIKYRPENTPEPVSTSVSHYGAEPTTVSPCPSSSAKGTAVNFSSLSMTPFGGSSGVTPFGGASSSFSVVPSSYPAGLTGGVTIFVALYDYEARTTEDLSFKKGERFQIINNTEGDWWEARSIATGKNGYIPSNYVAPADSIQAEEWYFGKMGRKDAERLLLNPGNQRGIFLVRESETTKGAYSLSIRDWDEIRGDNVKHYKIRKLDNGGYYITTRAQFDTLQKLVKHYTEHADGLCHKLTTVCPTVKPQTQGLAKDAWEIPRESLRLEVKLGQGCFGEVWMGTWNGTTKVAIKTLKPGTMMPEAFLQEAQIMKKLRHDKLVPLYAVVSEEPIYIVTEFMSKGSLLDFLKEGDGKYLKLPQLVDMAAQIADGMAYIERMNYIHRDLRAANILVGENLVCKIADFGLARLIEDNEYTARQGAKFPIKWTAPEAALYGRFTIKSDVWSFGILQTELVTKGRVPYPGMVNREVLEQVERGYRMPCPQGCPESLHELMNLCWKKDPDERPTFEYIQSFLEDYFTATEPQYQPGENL
# experiment.description: ADP-Glo kinase assay, inhibition rates of Yes phosphorylation activity (first and second screening)
# Type: biochemical
# condition.details: first screening; mean of n = 4 wells; 10 μmol L−1 compound
measure: First screening IR (inhibition rate) (%)

Check out these entries, answers already filled in.
>>> value_observed("CC(C)(Oc1ccc(Cl)cc1)C(=O)Nc1n[nH]c(-c2ccc(F)cc2)n1")
16
>>> value_observed("Cc1sc2nc(CN3CCC(C)CC3)nc(N3CCN(C(=O)c4ccccc4O)CC3)c2c1C")
-12
>>> value_observed("CCN(CC)S(=O)(=O)c1ccc(N2CCN(S(=O)(=O)c3ccccc3C#N)CC2)nc1")
6

[A] O=C(c1ccc(Cl)c(S(=O)(=O)N2CCCCC2)c1)N1CCn2c1nc1ccccc12
[B] COc1cc(/C=C2/C(=O)Nc3ccc(Cl)cc32)cc(Cl)c1OC(F)F
[C] NC(=O)C(Nc1cnn(Cc2ccccc2)c1)c1ccc(F)cc1 (centres unmarked)
Please list the entries, largest First screening IR (inhibition rate) first. Please list the labels in the order you were asked to rank them.
B, C, A
(B: 4%, C: 0%, A: -4%)

----------
# tgt: human recombinant Yes [a.a. 2–543 (end)] (Homo sapiens, UniProt P07947)
# Construct: human recombinant Yes [a.a; 2–543 (end)]; purchased BPS Bioscience 40488
# experiment.description: ADP-Glo kinase assay, inhibition rates of Yes phosphorylation activity (first and second screening)
# Format: biochemical
# condition.details: first screening; mean of n = 4 wells; 10 μmol L−1 compound
# Description: All inhibitory assays of the phosphorylation activity of Yes were performed in accordance with the Promega Technical Manual for the ADP-Glo™ Kinase Assay (Fitchburg, WI, USA. Catalog number: V9102). The human recombinant Yes [a.a. […] The screening was conducted in three steps consisting of the first screening, the second screening, and the IC50 determination, as can be illustrated in Fig. 1b. First, we determined the inhibition rates of the 1,991 compounds. […]
measure: First screening IR (inhibition rate) (%)

Examples from the recorded data:
>>> value_observed("CC(O)CNc1nc2ccccc2n1CC(=O)NCc1cccs1 (stereo not drawn) [Compound Z25766910]")
-11
>>> value_observed("Cc1nn(C)c2ncc(NC(=O)c3cc(-c4ccco4)nc4onc(C)c34)cc12 [Compound Z239539964]")
1
>>> value_observed("CNc1ccc(Nc2nccc(C(F)(F)F)n2)cn1 [Compound Z729056288]")
-20

[P] Cc1cc(NC(=O)c2cc3c(F)cccc3s2)n(CCC#N)n1 [Compound Z826713980]
[Q] CSc1ccc(C(C)N2CCCC(C(=O)N3CCOCC3)C2)cc1F (stereo not drawn) [Compound Z1742902065]
Two entries are listed, P and Q . Which one carries the higher First screening IR (inhibition rate)? Label of pick, please.
Q
(Q: 26%, P: -5%)

----------
# tgt: human recombinant Yes [a.a. 2–543 (end)] (Homo sapiens, UniProt P07947)
# Construct: human recombinant Yes [a.a; 2–543 (end)]; purchased BPS Bioscience 40488
# experiment.description: ADP-Glo kinase assay, inhibition rates of Yes phosphorylation activity (first and second screening)
# Type: biochemical
# condition.details: first screening; mean of n = 4 wells; 10 μmol L−1 compound
measure: First screening IR (inhibition rate) (%)

>>> value_observed("COc1ccccc1NC(=O)c1ccc(NC(=O)COc2ccc(-c3nc(C)cs3)cc2)cc1 [Compound Z99004386]")
5

[I] CCn1c(-c2ccncc2)nc2c1c(=O)[nH]c(=O)n2Cc1ccccc1 [Compound Z50138431]
[II] CC(Sc1ccc2c(c1)CCC2)C(=O)Nc1sc2c(c1C(N)=O)CCC2 (centres unmarked) [Compound Z113592752]
[III] CC1=Nc2nc(N3CCCCC3)c(C#N)c3c4c(nc(c23)N1)N(c1ccc(C)cc1)C(=O)C4 [Compound Z55516559]
[IV] CCOC(=O)c1c(NC(=O)c2ccc(C(C)(C)C)cc2)n(CCCN2CCOCC2)c2nc3ccccc3nc12 [Compound Z56786201]
Please give the order of these compounds when sorted by First screening IR (inhibition rate), largest value leading. List the labels, following the order given in the request.
IV, II, I, III

[P] CCc1c(C(=O)CN2CCCC2c2ccsc2)[nH]c(C)c1C(C)=O (centres unmarked) [Compound Z839968520]
[Q] Cn1c2ccccc2n2c3ccccc3c(=O)c(C#N)c12 [Compound Z734296158]
Pick one: P or Q . Which one has the lower reported First screening IR (inhibition rate)? Output the label that corresponds to your choice.
Q
(Q: -2%, P: 0%)

[A] N#Cc1ccccc1CSCCNC(=O)c1ccc2nc[nH]c2c1 [Compound Z88237436]
[B] O=C(Nc1nccs1)C1CCCN(C(=O)c2[nH]ncc2Br)C1 (centres unmarked) [Compound Z1177677805]
Short answer wanted: higher First screening IR (inhibition rate), A or B ? Pick one and reply with its label.
B

[P] CC(=O)c1c(C)[nH]c(C(=O)NCCCn2cnc3ccccc32)c1C [Compound Z102448822]
[Q] CCCCn1nc(C)c(C(=O)N2CCC(C)(CN3CCN(C)CC3)CC2)c1Cl [Compound Z1667221615]
From the items above, decide which of P and Q has the lower First screening IR (inhibition rate) reading. # answer = label of selected item
P
(P: 20%, Q: 29%)

----------
# tgt: human recombinant Yes [a.a. 2–543 (end)] (Homo sapiens)
# Construct: human recombinant Yes [a.a; 2–543 (end)]; purchased BPS Bioscience 40488
# experiment.description: ADP-Glo kinase assay, inhibition rates of Yes phosphorylation activity (first and second screening)
# Format: biochemical
# condition.details: first screening; mean of n = 4 wells; 10 μmol L−1 compound
measure: First screening IR (inhibition rate) (%)

>>> value_observed("Cc1nc(-c2cccc(NC(=O)CC(NC(N)=O)c3ccc(Cl)cc3)c2)cs1 (stereo not drawn)")
-6
>>> value_observed("CC(C)n1ncc2c(C(=O)N(C)CC(=O)Nc3ccc(F)c(F)c3F)cc(-c3ccccc3)nc21")
12
>>> value_observed("O=C(Cc1csc(Cc2ccccc2)n1)Nc1cccc(Cn2ccnc2)c1")
46
>>> value_observed("Cc1ccn2cc(C(=O)NCCCn3nc(C)cc3C)nc2c1")
2
>>> value_observed("CCN(C(=O)c1cc(-c2ccccc2)nc2c1cnn2Cc1cccnc1)c1ccccc1")
-11

[1] O=C(OCCOc1ccccc1Cl)c1cn2ccccc2n1
[2] Cc1ccccc1-n1c(SCC(=O)c2cc(C)n(CC3CCCO3)c2C)nnc1N1CCOCC1 (stereo not drawn)
Could you check which of 1 and 2 has a smaller value for First screening IR (inhibition rate)? Response format: the label of the selected entry.
1
(1: 0%, 2: 14%)

[P] O=S1(=O)CCC(S(=O)(=O)NC2CCCCCC2)CC1
[Q] CC1OC(C)(C)N(C(=O)OC(C)(C)C)C1CNC(=O)c1c(F)cccc1Cl (stereo not drawn)
Decide: P or Q , by lowest recorded First screening IR (inhibition rate). Could you answer with the label of the item you picked?
Q
(Q: -2%, P: 50%)
